Reference for the values: ChEMBL document CHEMBL3832029

assay-info: Mean pharmacokinetics parameters for Isotretinoin following single oral administration of Isotretinoin to healthy subjects.
Format: ADME, organism-based
Design: dose 80 mg, route oral
test-settings: human, in vivo; dietary status Fed, dose 80 mg, dosed compound id 16, dosed compound name ISOTRETINOIN, regimen Single dose, route oral, tissue Plasma
reported-metric: half-life (h)
Express your answer in h, writing the number without its unit.

# get_value(readout='half-life', item= `CC1=C(/C=C/C(C)=C/C=C/C(C)=C\C(=O)O)C(C)(C)CCC1` ) 21

* * *

assay-info: Mean pharmacokinetics parameters for Isotretinoin following single oral administration of Isotretinoin to healthy subjects.
Type: ADME, organism-based
Design: dose 80 mg, route oral
test-settings: human, in vivo; dietary status Fed, dose 80 mg, dosed compound id 16, dosed compound name ISOTRETINOIN, regimen Single dose, route oral, tissue Plasma
reported-metric: Tmax (h)
Express your answer in h, writing the number without its unit.

# get_value(readout='Tmax', item= `CC1=C(/C=C/C(C)=C/C=C/C(C)=C\C(=O)O)C(C)(C)CCC1` ) 5.3

* * *

Tested on: Homo sapiens
assay-info: Mean pharmacokinetics parameters for Isotretinoin following single oral administration of Isotretinoin to healthy subjects.
Format: ADME, organism-based
Parameters: dose 80 mg, route oral
test-settings: in vivo, po, dietary status Fasting, dosed compound id 16, dosed compound name ISOTRETINOIN, regimen Single dose, tissue Plasma
reported-metric: AUC(0 to inf) (µg·h/mL)
Express your answer in µg·h/mL, writing the number without its unit.

# get_value(readout='AUC(0 to inf)', item= `CC1=C(/C=C/C(C)=C/C=C/C(C)=C\C(=O)O)C(C)(C)CCC1` ) 3.7

* * *

assay-info: Steady-state pharmacokinetic parameters of Isotretinoin following multiple oral administration of Isotretinoin to 38 pediatric patients, […], after a non-standardised meal.
Assay type: ADME, organism-based
Design: route oral
test-settings: human, in vivo; dietary status Fed, dosed compound id 16, dosed compound name ISOTRETINOIN, regimen Multiple dose, route oral, tissue Plasma
reported-metric: half-life (h)
Express your answer in h, writing the number without its unit.

# get_value(readout='half-life', item= `CC1=C(/C=C/C(C)=C/C=C/C(C)=C\C(=O)O)C(C)(C)CCC1` ) 15.7

* * *

assay-info: Steady-state pharmacokinetic parameters of Isotretinoin following multiple oral administration of Isotretinoin to 38 pediatric patients, […], after a non-standardised meal.
Type: ADME, organism-based
Parameters: route oral
test-settings: human, in vivo; dietary status Fed, dosed compound id 16, dosed compound name ISOTRETINOIN, regimen Multiple dose, route oral, tissue Plasma
reported-metric: CL/F (mL/min)
Express your answer in mL/min, writing the number without its unit.

# get_value(readout='CL/F', item= CC1=C(/C=C/C(C)=C/C=C/C(C)=C\C(=O)O)C(C)(C)CCC1 [ISOTRETINOIN] ) 299

* * *

assay-info: Steady-state pharmacokinetic parameters of Isotretinoin following multiple oral administration of Isotretinoin to 38 pediatric patients, […], after a non-standardised meal.
Type: ADME, organism-based
Parameters: route oral
test-settings: human, in vivo, po; dietary status Fed, dosed compound id 16, dosed compound name ISOTRETINOIN, regimen Multiple dose, tissue Plasma
reported-metric: Cmax (ng/mL)
Express your answer in ng/mL, writing the number without its unit.

# get_value(readout='Cmax', item= CC1=C(/C=C/C(C)=C/C=C/C(C)=C\C(=O)O)C(C)(C)CCC1 [ISOTRETINOIN] ) 732
